- Test system: SNB-75 CNS
- test.method.notes: NCI tumour cell line growth inhibition, 48 h
Where a SMILES comes first, the peptide text is derived from it. [ ]: non-standard residue; d: D form. ξ: configuration not given here. Pentanoyl(2-O,4-OH,5-Cl) = O=C(O)C(O)CC(O)CCl; Ile(3ξ) = CCC(C)[C@H](N)C(=O)O; NMeV = CN[C@H](C(=O)O)C(C)C; NMeA = CN[C@@H](C)C(=O)O; βAla = NCCC(=O)O

compound | subject.of.test | TGI
CC(C)OC(=O)Nc1c([N+](=O)[O-])cc(C(F)(F)F)cc1[N+](=O)[O-] | SNB-75 CNS | 40 µM
CN1CCN(c2cc(F)c(NC3=C(Cl)C(=O)c4ncccc4C3=O)c(F)c2)CC1 | SNB-75 CNS | 5.61 µM
[N-]=[N+]=NC1C(Cl)C(=O)NC(=O)N1[C@H]1C[C@H](O)[C@@H](CO)O1 (stereo partly specified) | SNB-75 CNS | > 100 µM
O=C(O)CSC1=NCCN1 | SNB-75 CNS | > 100 µM
CCC(=O)N1C(=S)SC[C@H]1C(=O)OC | SNB-75 CNS | > 100 µM
Clc1ccc2c(NC3CCC(NC4CCCCC4)CC3)ccnc2c1 (stereo unspecified) | SNB-75 CNS | 19.4 µM
CC(C)(Sc1cc(C(C)(C)C)c(O)c(C(C)(C)C)c1)Sc1cc(C(C)(C)C)c(O)c(C(C)(C)C)c1 | SNB-75 CNS | > 100 µM
CCN(CC)c1c(-c2c(OC(C)C)c(=O)c2=O)c(=O)n2ccsc2c1OC(C)=O | SNB-75 CNS | > 100 µM
CC(Nc1cccc(Cl)c1)c1ccncc1 (stereo unspecified) | SNB-75 CNS | > 100 µM
COc1ccc2c(c1)c(-c1ccc(-c3cn(C)c4ccc(OC)cc34)s1)cn2C | SNB-75 CNS | > 100 µM
CCC(C)[C@@H]1NC(=O)[C@@H]2CCCN2C(=O)C(CC(O)CCl)OC(=O)CCNC(=O)[C@H](C)N(C)C(=O)[C@H](C(C)C)N(C)C1=O (stereo partly specified) (cyclo([Ile(3ξ)][NMeV][NMeA][βAla][Pentanoyl(2-O,4-OH,5-Cl)]P)) | SNB-75 CNS | > 100 µM
COc1ccc(-c2nn3ncccc3c2-c2ccnc(Nc3ccc(F)c(F)c3)n2)cc1 | SNB-75 CNS | > 25 µM
OC1C2CN3CCN(C2)CC1(c1ccccc1)C3 (stereo unspecified) | SNB-75 CNS | > 100 µM
CC(C)(C)c1ccc(O)c(C(O)c2ccccn2)c1 (stereo unspecified) | SNB-75 CNS | > 100 µM
N#C/C=C(/NC(=O)Nc1ccccc1)N1CCCC1 | SNB-75 CNS | > 21.4 µM
COc1cc(O)c2c(=O)c3cccc(C)c3[nH]c2c1 | SNB-75 CNS | > 10 µM
CCN(Cc1ccccc1)c1ccc(/C=C2\COc3ccccc3C2=O)cc1 | SNB-75 CNS | > 1000 µM
CN1CCN(c2n[nH]c(=O)c3c2nnn3Cc2ccccc2)CC1 | SNB-75 CNS | > 100 µM
C[C@]12C(=O)OC[C@H](c3ccccc3)N1C(=O)N(Cc1ccccc1)[C@@H]2CO | SNB-75 CNS | > 100 µM
Cc1cccc(-c2cc(=O)c3cccnc3[nH]2)c1 | SNB-75 CNS | > 100 µM
COC(=O)C12CCCN1CCC2 | SNB-75 CNS | > 100 µM

====

- Test system: K-562 leukemia
- test.method.notes: NCI tumour cell line growth inhibition, 48 h; in the data active means GI50 below about 0.43 µM; inactive means the rest
Possible outcomes: active, inactive

compound | subject.of.test | classification
N#Cc1cnc2ccc(NCc3cnc[nH]3)cc2c1Nc1ccc(F)c(Cl)c1 | K-562 leukemia | inactive
CN1CCN(c2ccc3nc(-c4[nH]ncc4Nc4ncnc5[nH]ccc45)[nH]c3c2)CC1 | K-562 leukemia | active
CCN(CC)CCN1C(=O)C2C3C(C)=CC(OC(C)=O)(CC3C)C2C1=O (configuration not stated) | K-562 leukemia | inactive
COc1cc2c(cc1OCCCCCOc1ccc(-c3nc4ccccc4s3)cc1)N=C[C@@H]1CCCN1C2=O | K-562 leukemia | inactive
CCCN1CCC(Oc2cc(Nc3nc(Nc4cccc(F)c4C(N)=O)c4cc[nH]c4n3)c(OC)cc2Cl)CC1 | K-562 leukemia | inactive
C/C(=C1\C(=O)Nc2ccccc21)c1cccc(/C(C)=C2/C(=O)Nc3ccccc32)n1 | K-562 leukemia | inactive
C=CCn1c(SCC(=O)Nc2ccc(C(=O)/C=C/c3cc(OC)c(OC)c(OC)c3)cc2)nnc1-c1cc(OC)c(OC)c(OC)c1 | K-562 leukemia | inactive
CC(=O)Nc1ccc(CC[C@H]2CCC/C=C/[C@@H]3C[C@H](O)C[C@H]3[C@H](O)/C=C/C(=O)O2)cc1 | K-562 leukemia | active
Cc1cc(NC(=O)NCCCOc2ccc(N3C(N)=NC(N)=NC3(C)C)cc2Cl)ccc1S(=O)(=O)F | K-562 leukemia | active
CCn1c(-c2nonc2N)nc2cnc(Oc3cccc(NC(=O)c4ccc(OCCN5CCOCC5)cc4)c3)cc21 | K-562 leukemia | inactive
O=C(Nc1ccccc1/C=C/c1n[nH]c2ccccc12)c1ccccc1 | K-562 leukemia | inactive
CN1CCC2(CC1)C(=O)Nc1cc(NC(=O)c3ccc4c(c3)C[C@@H]3C(C)(C)[C@H](O)[C@H](F)C[C@@]3(C)O4)ccc12 | K-562 leukemia | active

====

- Test system: M19-MEL melanoma
- test.method.notes: NCI tumour cell line growth inhibition, 48 h
Let's look at some compounds and their measured TGI.

compound | subject.of.test | TGI
CN(C)CCN1C(=O)c2cccc3cc(N)cc(c23)C1=O | M19-MEL melanoma | 12.5 µM
CC(C)NC1CCCCC2c3ccccc3C12O (stereo unspecified) | M19-MEL melanoma | > 100 µM
COc1ccc(C(O)C(c2ccc(OCc3ccccc3)cc2)c2ccc(OCc3ccccc3)cc2)cc1 (stereo unspecified) | M19-MEL melanoma | > 100 µM
CSC(=Nc1ccc([N+](=O)[O-])cc1C#N)NC(=O)c1ccccc1 | M19-MEL melanoma | > 100 µM
COC(=O)C1=C(C(=O)OC)C23CC4CCC2(C(=O)C1O3)C4(C)C (stereo unspecified) | M19-MEL melanoma | > 100 µM
Cc1c2ccccc2c(=O)n2c(-c3ccccn3)cccc12 | M19-MEL melanoma | > 100 µM

====

- Test system: SK-OV-3 ovarian
- test.method.notes: NCI tumour cell line growth inhibition, 48 h

compound | TGI
CC(C)Cn1cnc2c(N)nc3ccccc3c21 | > 100 µM
Nc1nc(N)c2cc(S(=O)(=O)c3cccc(C(F)(F)F)c3)ccc2n1 | > 100 µM
Cc1ccc(N=NC(=Nc2ccc(F)cc2)c2ccc(N(CCC#N)CCC#N)cc2)cc1 | > 100 µM
Fc1ccc(F)c(C=NC23CC4CC(CC(C4)C2)C3)c1 | > 10 µM
O=C1C(NS(=O)(=O)c2ccccc2)=C(n2ccnc2)C(=O)c2ccccc21 | > 100 µM
O=c1c2ccccc2c(=O)n2n1-c1cccc(c1)CSSCc1cccc-2c1 | > 100 µM
CCOC(=O)c1sc2nc(=S)[nH]c(NC(N)=S)c2c1C | 61.3 µM
Nc1nc(N)c2cc(-c3cc4ccccc4[nH]3)ccc2n1 | > 100 µM
CCOC(=O)Cn1nnc2ccc(Nc3nc4ccccc4nc3C(=O)OCC)cc21 | > 100 µM
NCCNCCNCc1c2ccccc2c(CNCCNCCN)c2ccccc12 | > 100 µM
O=[N+]([O-])C1=Cc2c(O)ccc(O)c2C2OC=CC12 (stereo unspecified) | > 100 µM

====

- Tested on: KM12 colon
- test.method.notes: NCI tumour cell line growth inhibition, 48 h
value.type: TGI

compound | value.type | reported.measurement
CC(C)CC(NC(=O)C(O)C(N)Cc1ccccc1)C(=O)O (configuration not stated) | TGI | > 100 µM
Cc1ccc2[nH]c3c(c2c1)C1CCC(C(C)(C)C)CC1C1C(=O)N(c2ccc(Oc4ccccc4)cc2)C(=O)C31 (configuration not stated) | TGI | > 100 µM
CC(C)(C)CNCCO | TGI | > 100 µM
Cn1c2ccccc2n2c(=O)c(-c3ccc(Cl)cc3)nnc12 | TGI | > 100 µM
Cc1ccc(NC(=O)c2ccoc2)cc1-c1ccc(C(=O)NCC2CC2)cc1 | TGI | > 25 µM
CCCCCOC(=O)c1c(C)[nH]c(/C=C2\N=C(c3ccc[nH]3)C=C2OC)c1C | TGI | 1.54 µM
O=C1c2ccccc2C(=O)N1C/C=N/NS(=O)(=O)c1cccc([N+](=O)[O-])c1 | TGI | > 100 µM
N#Cc1nc2cc(Cl)c(Cl)cc2nc1-c1ccc(Cl)cc1 | TGI | > 100 µM
CCOC(=O)c1sc2nc(=S)[nH]c(NC(N)=S)c2c1C | TGI | 52.7 µM
CN(C)CCNc1c(O)c2c(c(O)c1Cl)C(=O)C=CC2=O | TGI | 3.39 µM
CCN1CC2=C(OC(N)=C(C#N)C2c2ccc(Cl)cc2)/C(=C/c2ccc(Cl)cc2)C1 (configuration not stated) | TGI | > 100 µM
COc1ccc(/C=C2\C(=O)N(C(=O)c3ccc(NC(C)=O)cc3)N=C2C)cc1OC | TGI | > 100 µM
